Numbers sourced from paper PMC11033320.

Experiment: MTT cytotoxicity to normal human lung fibroblast Wi-38 cell line
Type: cell-based
Conditions: Wi-38 normal lung fibroblast cells, mean ± SEM, read-out: percentage of Wi-38 viability
Description: Normal human lung fibroblast Wi-38 cell line was used to detect cytotoxicity of the studied compounds (Table S8). Wi-38 cell line was cultured in DMEM medium-contained 10% fetal bovine serum (FBS), seeded as 5x10^3 cells per well in 96-well cell culture plate and incubated at 37 °C in 5% CO2 incubator. […] Then MTT solution was removed, 100 µl DMSO was added and the absorbance of each well was measured with a microplate reader (BMG LabTech, Germany) at 570 nm.
REPORTED ENDPOINT: viability at 72 h, 5 µM (%)
Give just the numeric value; % need not be written.

Below are worked cases with known answers.
Supply recorded viability at 72 h, 5 µM for O=C(c1nc2ccccc2[nH]1)[C@H]1[C@H](c2cccc(F)c2)C2CSCN2[C@]12C(=O)Nc1ccccc12 (some centres unmarked) here.
43.7

Supply recorded viability at 72 h, 5 µM for O=C(c1nc2ccccc2[nH]1)[C@H]1[C@H](c2ccccc2O)C2CSCN2[C@]12C(=O)Nc1ccccc12 (some centres unmarked) here.
40

Supply recorded viability at 72 h, 5 µM for COc1cc([C@@H]2C3CSCN3[C@]3(C(=O)Nc4ccccc43)[C@H]2C(=O)c2nc3ccccc3[nH]2)cc(OC)c1OC (some centres unmarked) here.
43.3

Supply recorded viability at 72 h, 5 µM for O=C(c1nc2ccccc2[nH]1)[C@H]1[C@H](c2ccc(F)cc2)C2CSCN2[C@]12C(=O)Nc1ccccc12 (some centres unmarked) here.
47.4

Supply recorded viability at 72 h, 5 µM for O=C(c1nc2ccccc2[nH]1)[C@H]1[C@H](c2cccs2)C2CSCN2[C@]12C(=O)Nc1ccccc12 (some centres unmarked) here.
51.7

Supply recorded viability at 72 h, 5 µM for O=C(c1nc2ccccc2[nH]1)[C@H]1[C@H](c2ccc(Br)cc2)C2CSCN2[C@]12C(=O)Nc1ccccc12 (some centres unmarked) here.
37.4

Supply recorded viability at 72 h, 5 µM for O=C(c1nc2ccccc2[nH]1)[C@H]1[C@H](c2ccco2)C2CSCN2[C@]12C(=O)Nc1ccccc12 (some centres unmarked) here.
46.2

Supply recorded viability at 72 h, 5 µM for O=C(c1nc2ccccc2[nH]1)[C@H]1[C@H](c2ccc(Cl)cc2Cl)C2CSCN2[C@]12C(=O)Nc1ccccc12 (some centres unmarked) here.
40

Shifting focus to the compound that follows.
Supply recorded viability at 72 h, 5 µM for O=C(c1nc2ccccc2[nH]1)[C@H]1[C@H](c2ccc(C(F)(F)F)cc2)C2CSCN2[C@]12C(=O)Nc1ccccc12 (some centres unmarked) here.
59.9
